Please respond with reported % Weight Gain Mean for every item in the list.
- System: hypophysectomized (hypox) rats
- testDescription: body weight gain in hypophysectomized (hypox) rats
- Format: in vivo, rat
- conditionDetails: hypox rats, 24 ug pST/day for 9 days, weight gain over a 10 day period
Numbers only, in %.

Please state % Weight Gain Mean for every molecule in the list that follows.
1. pST Standard: pST standard of the hypox rat assay; footnote mentions pituitary derived pST standard (protein, UniProt P01248 27-216, looked up) Somatotropin: FPAMPLSSLFANAVLRAQHLHQLAADTYKEFERAYIPEGQRYSIQNAQAAFCFSETIPAPTGKDEAQQRSDVELLRFSLLLIQSWLGPVQFLSRVFTNSLVFGTSDRVYEKLKDLEEGIQALMRELEDGSPRAGQILKQTYDKFDTNLRSDDALLKNYGLLSCFKKDLHKAETYLRVMKCRRFVESSCAF
2. non-derivatized rpST: unmodified recombinant porcine somatotropin produced in E. coli ATCC 53031 (protein, UniProt P01248 27-216, looked up, E. coli recombinant) Somatotropin: FPAMPLSSLFANAVLRAQHLHQLAADTYKEFERAYIPEGQRYSIQNAQAAFCFSETIPAPTGKDEAQQRSDVELLRFSLLLIQSWLGPVQFLSRVFTNSLVFGTSDRVYEKLKDLEEGIQALMRELEDGSPRAGQILKQTYDKFDTNLRSDDALLKNYGLLSCFKKDLHKAETYLRVMKCRRFVESSCAF
3. Small-loop derivatized Zn-RpST: zinc form of small-loop derivatized recombinant porcine somatotropin (protein, UniProt P01248 27-216, looked up, zinc form; small-loop cysteines carbamidomethylated, zinc form of small-loop derivatized recombinant porcine somatotropin) Somatotropin: FPAMPLSSLFANAVLRAQHLHQLAADTYKEFERAYIPEGQRYSIQNAQAAFCFSETIPAPTGKDEAQQRSDVELLRFSLLLIQSWLGPVQFLSRVFTNSLVFGTSDRVYEKLKDLEEGIQALMRELEDGSPRAGQILKQTYDKFDTNLRSDDALLKNYGLLSCFKKDLHKAETYLRVMKCRRFVESSCAF

a:
1: 23.1; 2: 14.4; 3: 13.5

Please state % Weight Gain Mean for every molecule in the list that follows.
1. Dialyzed Zn-rpST: dialyzed zinc recombinant porcine somatotropin (protein, UniProt P01248 27-216, looked up, zinc form, dialyzed zinc recombinant porcine somatotropin) Somatotropin: FPAMPLSSLFANAVLRAQHLHQLAADTYKEFERAYIPEGQRYSIQNAQAAFCFSETIPAPTGKDEAQQRSDVELLRFSLLLIQSWLGPVQFLSRVFTNSLVFGTSDRVYEKLKDLEEGIQALMRELEDGSPRAGQILKQTYDKFDTNLRSDDALLKNYGLLSCFKKDLHKAETYLRVMKCRRFVESSCAF
2. Non-derivatized Zn-rpST: zinc form of non-derivatized recombinant porcine somatotropin (protein, UniProt P01248 27-216, looked up, zinc form, zinc form of non-derivatized recombinant porcine somatotropin) Somatotropin: FPAMPLSSLFANAVLRAQHLHQLAADTYKEFERAYIPEGQRYSIQNAQAAFCFSETIPAPTGKDEAQQRSDVELLRFSLLLIQSWLGPVQFLSRVFTNSLVFGTSDRVYEKLKDLEEGIQALMRELEDGSPRAGQILKQTYDKFDTNLRSDDALLKNYGLLSCFKKDLHKAETYLRVMKCRRFVESSCAF

a:
14.4
17.1
